Hi! I'm sharing some MIC results obtained with Escherichia coli.

[[record]]
input_smiles = "CC[C@H](C)[C@H](NC(=O)[C@@H](NC(=O)[C@H](C)NC(=O)[C@H](C)NC(=O)[C@@H](NC(=O)[C@H](CCCN=C(N)N)NC(=O)[C@H](CO)NC(=O)[C@H](CO)NC(=O)[C@@H](NC(=O)[C@@H](NC(=O)[C@H](CC(C)C)NC(=O)[C@@H](NC(=O)[C@H](Cc1ccccc1)NC(=O)[C@@H]1CCCN1C(=O)[C@H](CO)NC(=O)[C@@H](N)CCCCN)C(C)C)C(C)C)C(C)C)C(C)C)C(C)C)C(=O)N[C@@H](CCCCN)C(=O)N[C@@H](CO)C(=O)N[C@@H](CC(C)C)C(=O)N1CCC[C@H]1C(=O)O"
reported_metric = "MIC"
result = "> 122 µM"


Switching to the query record.
State the recorded MIC for this entry: CC[C@H](C)[C@H](NC(=O)[C@H](CC(C)C)NC(=O)[C@H](C)NC(=O)[C@@H]1CCCN1C(=O)[C@H](CC(C)C)NC(=O)CN)C(=O)N[C@@H](CO)C(=O)N[C@@H](Cc1c[nH]c2ccccc12)C(=O)N[C@@H](CO)C(=O)N[C@@H](CCCCN)C(=O)N[C@@H](CCCN=C(N)N)C(=O)N[C@@H](CCCCN)C(=O)N[C@@H](CCCN=C(N)N)C(=O)N[C@@H](CCC(N)=O)C(=O)N[C@@H](CCC(N)=O)C(N)=O
> 53.4 µM

* * *

system: Bacillus subtilis 168
REPORTED METRIC: MIC (µM)
Could you give me the number in µM? Just the number is fine.

Reference set (2 entries):
[[record]]
input_smiles = "CC[C@H](C)[C@H](NC(=O)[C@H](CCCCN)NC(=O)[C@H](CCCCN)NC(=O)[C@H](Cc1c[nH]c2ccccc12)NC(=O)[C@H](CC(N)=O)NC(=O)[C@@H](N)C(C)C)C(=O)N[C@@H](CC(C)C)C(=O)N[C@@H](CCCCN)C(=O)N[C@@H](CCCCN)C(=O)N[C@H](C(=O)N[C@H](C(=O)N[C@@H](CCCCN)C(=O)N[C@H](C(=O)N[C@H](C(=O)N[C@@H](CCCCN)C(N)=O)C(C)C)C(C)C)[C@@H](C)CC)[C@@H](C)CC"
unit_descriptor = "µM"
numeric_result = 0.7

[[record]]
input_smiles = "CC[C@H](C)[C@H](NC(=O)[C@H](C)NC(=O)[C@H](CCCCN)NC(=O)[C@H](Cc1c[nH]c2ccccc12)NC(=O)[C@H](CC(N)=O)NC(=O)[C@@H](N)CCCCN)C(=O)N[C@@H](CC(C)C)C(=O)N[C@@H](CCCCN)C(=O)N[C@@H](Cc1cnc[nH]1)C(=O)N[C@H](C(=O)N[C@H](C(=O)N[C@@H](CCCCN)C(N)=O)[C@@H](C)CC)[C@@H](C)CC"
unit_descriptor = "µM"
numeric_result = 2.5


State the recorded MIC for this entry: CC(C)C[C@H](NC(=O)[C@H](CCCCN)NC(=O)[C@H](CCCCN)NC(=O)[C@H](CC(C)C)NC(=O)[C@H](CC(C)C)NC(=O)[C@H](CCCCN)NC(=O)[C@H](CCCCN)NC(=O)[C@H](CC(C)C)NC(=O)[C@H](CC(C)C)NC(=O)[C@H](CCCCN)NC(=O)[C@H](CCCCN)NC(=O)[C@H](CC(C)C)NC(=O)[C@H](CC(C)C)NC(=O)CN)C(N)=O
2

* * *

# MIC values compiled below
system: Pseudomonas aeruginosa ATCC 9027; assay: ≥ marks a high value that may be exact or a test limit, other limits are often not marked, values filed in µg/mL are converted to µM

Reference set (3 entries):
[[record]]
input_smiles = "NCCCC[C@H](NC(=O)[C@H](Cc1c[nH]c2ccccc12)NC(=O)[C@H](Cc1ccccc1)NC(=O)[C@@H](N)Cc1c[nH]c2ccccc12)C(=O)N[C@@H](Cc1c[nH]c2ccccc12)C(=O)N[C@@H](Cc1c[nH]c2ccccc12)C(=O)N[C@@H](CCCN=C(N)N)C(=O)N[C@@H](CCCN=C(N)N)C(=O)N[C@@H](CCCN=C(N)N)C(=O)N[C@@H](CCCN=C(N)N)C(=O)N[C@@H](CCCN=C(N)N)C(N)=O"
measurement_target = "Pseudomonas aeruginosa ATCC 9027"
result = "4.6 µM"

[[record]]
input_smiles = "CC(C)C[C@H](NC(=O)[C@@H](NC(=O)[C@H](CCCCN)NC(=O)[C@H](Cc1ccccc1)NC(=O)[C@@H](NC(=O)[C@@H](NC(=O)[C@H](CCCCN)NC(=O)[C@@H](N)CC(C)C)C(C)C)C(C)C)C(C)C)C(=O)N[C@@H](Cc1ccccc1)C(=O)N[C@@H](CCCCN)C(=O)O"
measurement_target = "Pseudomonas aeruginosa ATCC 9027"
result = "13.1 µM"

[[record]]
input_smiles = "CC(C)C[C@H](NC(=O)[C@H](CCCCN)NC(=O)[C@H](CC(C)C)NC(=O)[C@H](C)NC(=O)[C@H](CCCCN)NC(=O)[C@H](C)NC(=O)[C@H](CC(C)C)NC(=O)[C@H](CC(C)C)NC(=O)[C@H](CCCCN)NC(=O)[C@H](CCCCN)NC(=O)[C@H](C)NC(=O)[C@@H](N)Cc1ccccc1)C(N)=O"
measurement_target = "Pseudomonas aeruginosa ATCC 9027"
result = "149 µM"


Switching to the query record.
State the recorded MIC for this entry: CC[C@H](C)[C@H](NC(=O)[C@H](CCCCN)NC(=O)[C@H](CCCCN)NC(=O)[C@H](C)NC(=O)[C@@H](NC(=O)[C@H](C)NC(=O)[C@H](CC(C)C)NC(=O)[C@H](CC(C)C)NC(=O)[C@H](C)NC(=O)[C@H](CCCCN)NC(=O)[C@H](CC(C)C)NC(=O)[C@H](CC(N)=O)NC(=O)[C@@H](N)CC(C)C)C(C)C)C(N)=O
32 µM

* * *

Hi! I'm sharing some MIC results obtained with Bacillus subtilis 168.
Could you give me the number in µM? Just the number is fine.

[[record]]
input_smiles = "CSCC[C@H](NC(=O)CNC(=O)[C@H](Cc1ccccc1)NC(=O)CN)C(=O)N[C@@H](C)C(=O)N[C@@H](CC(C)C)C(=O)N[C@@H](CCCCN)C(=O)N[C@@H](CC(C)C)C(=O)N[C@@H](CC(C)C)C(=O)N[C@@H](CCCCN)C(=O)N[C@@H](CCCCN)C(=O)N[C@H](C(=O)N[C@@H](CC(C)C)C(N)=O)C(C)C"
numeric_result = 1.3


State the recorded MIC for this entry: CC[C@H](C)[C@H](NC(=O)CN)C(=O)N[C@@H](CC(C)C)C(=O)N[C@@H](CO)C(=O)N[C@@H](CO)C(=O)N[C@@H](CC(C)C)C(=O)N[C@@H](Cc1c[nH]c2ccccc12)C(=O)N[C@@H](CCCCN)C(=O)N[C@@H](CCCCN)C(=O)N[C@@H](CC(C)C)C(=O)N[C@@H](CCCCN)C(=O)N[C@@H](CCCCN)C(=O)N[C@H](C(=O)N[C@H](C(=O)N[C@@H](C)C(=O)N[C@@H](CCCCN)C(N)=O)[C@@H](C)CC)[C@@H](C)CC
7

Proceed to CC[C@H](C)[C@H](NC(=O)[C@H](Cc1cnc[nH]1)NC(=O)[C@H](CCCCN)NC(=O)[C@H](CC(C)C)NC(=O)[C@H](CC(C)C)NC(=O)[C@H](CO)NC(=O)[C@H](CCSC)NC(=O)[C@H](Cc1ccccc1)NC(=O)[C@H](CCCCN)NC(=O)CN)C(=O)N[C@@H](CC(C)C)C(=O)N[C@@H](CCCCN)C(N)=O
1.5

* * *

# MIC values compiled below
system: Escherichia coli
Could you give me the number in µM? Just the number is fine.

[[record]]
compound = "CC[C@H](C)[C@H](NC(=O)[C@H](CCCCN)NC(=O)[C@H](CO)NC(=O)[C@H](Cc1ccccc1)NC(=O)[C@H](CO)NC(=O)[C@H](CCCCN)NC(=O)[C@H](CCC(=O)O)NC(=O)[C@H](CC(C)C)NC(=O)[C@H](CCCN=C(N)N)NC(=O)[C@H](CCCCN)NC(=O)[C@H](Cc1ccccc1)NC(=O)[C@@H](NC(=O)[C@H](CCCCN)NC(=O)[C@H](CCCCN)NC(=O)[C@H](C)N)C(C)C)C(=O)N[C@@H](CCC(N)=O)C(=O)N[C@@H](CC(N)=O)C(=O)N[C@@H](CC(=O)O)C(=O)N[C@@H](CCCCN)C(N)=O [AKKVFKRLEKSFSKIQNDK]"
numeric_result = 12.5

[[record]]
compound = "CC(C)C[C@H](NC(=O)[C@H](CCCCN)NC(=O)[C@H](CCCCN)NC(=O)[C@H](Cc1ccccc1)NC(=O)[C@H](Cc1ccccc1)NC(=O)[C@H](CCCCN)NC(=O)[C@H](CCCCN)NC(=O)[C@@H](N)Cc1ccccc1)C(=O)N[C@@H](CCCCN)C(=O)N[C@@H](CC(N)=O)C(=O)N[C@@H](CO)C(=O)N[C@H](C(=O)N[C@@H](CCCCN)C(=O)N[C@@H](CCCCN)C(=O)N[C@@H](CCCN=C(N)N)C(=O)O)C(C)C [FKKFFKKLKNSVKKR]"
numeric_result = 6.23


Switching to the query record.
State the recorded MIC for this entry: CC[C@H](C)[C@H](NC(=O)[C@H](CCC(N)=O)NC(=O)[C@@H](N)CCCN=C(N)N)C(=O)N[C@@H](CCCN=C(N)N)C(=O)N[C@@H](CCCN=C(N)N)C(=O)N[C@@H](Cc1c[nH]c2ccccc12)C(=O)N[C@@H](Cc1c[nH]c2ccccc12)C(=O)N[C@@H](CCC(N)=O)C(=O)N[C@@H](CCCN=C(N)N)C(N)=O [RQIRRWWQR]
9.03
